These entries and their values trace back to patent US9481674B1.

# target_or_test_system: recombinant RORγ Ligand Binding Domain (LBD) protein (Homo sapiens)
# Construct: 6×His; GST
# procedure_details: Radio-Ligand RORγ Binding Assay (Assay 1)
# condition_details: cell-free competition with 25-hydroxy[26,27-3H]-cholesterol; read-out: RORγ Binding Ki Range* (nM) (Assay 1)
# Ki annotations

Use the examples below as a reference point.
# molecule, target_or_test_system, value_measured
records = [
    ("CCS(=O)(=O)c1ccc([C@H](CO)NC(=O)c2cnc3c(c2)CN(C[C@H]2CC[C@@H](C(F)(F)F)CO2)[C@H]3C(C)C)cc1 (single isomer, unassigned)", "recombinant RORγ Ligand Binding Domain (LBD) protein (Homo sapiens)", "< 100 nM"),
    ("CCS(=O)(=O)c1ccc([C@H](CO)NC(=O)c2cnc3c(c2)CN(C[C@@H]2CC[C@H](C(F)(F)F)CO2)[C@H]3C(C)C)cc1 (single isomer, unassigned)", "recombinant RORγ Ligand Binding Domain (LBD) protein (Homo sapiens)", "< 100 nM"),
    ("CCS(=O)(=O)c1ccc([C@@H](NC(=O)c2cnc3c(c2)CN(C[C@H]2CC[C@H](C(F)(F)F)CC2)[C@H]3C(C)C)[C@@H](C)O)cc1 (single isomer, unassigned)", "recombinant RORγ Ligand Binding Domain (LBD) protein (Homo sapiens)", "< 100 nM"),
]

Tell me the measured Ki of CCS(=O)(=O)c1ccc([C@H](CO)NC(=O)c2cnc3c(c2)CN(C[C@@H]2CC[C@@H](C(F)(F)F)CO2)[C@H]3C(C)C)cc1 (single isomer, unassigned) , please.
< 100 nM

Tell me the measured Ki of CCS(=O)(=O)c1ccc([C@H](CO)NC(=O)c2cnc3c(c2)CN(CC(F)(F)F)[C@H]3Cc2ccccc2)cc1 , please.
< 100 nM

Tell me the measured Ki of CCS(=O)(=O)c1ccc([C@H](CO)NC(=O)c2cnc3c(c2)CN(C[C@H]2CC[C@H](C(F)(F)F)CO2)[C@H]3C(C)C)cc1 (single isomer, unassigned) , please.
< 100 nM

Tell me the measured Ki of CCO[C@H]1CC[C@H](CN2Cc3cc(C(=O)N[C@@H](CO)c4ccc(S(=O)(=O)CC)cc4)cnc3[C@@H]2C(C)C)CC1 , please.
< 100 nM

---

# target_or_test_system: recombinant RORγ Ligand Binding Domain (LBD) protein (Homo sapiens, UniProt P51449)
# Construct: 6×His; GST
# procedure_details: Radio-Ligand RORγ Binding Assay (Assay 1)
# condition_details: cell-free competition with 25-hydroxy[26,27-3H]-cholesterol; read-out: RORγ Binding Ki Range* (nM) (Assay 1)
# Ki annotations

Use the examples below as a reference point.
# molecule, value_measured
rows = [
    ("CCS(=O)(=O)c1ccc([C@H](CO)NC(=O)c2cnc3c(c2)CN(C)[C@H]3Cc2ccccc2)cc1", "100 to 1000 nM"),
    ("CCS(=O)(=O)c1ccc([C@H](CO)NC(=O)c2cnc3c(c2)CN(C[C@H]2CC[C@H](C(F)(F)F)CC2)[C@H]3Cc2ccccc2)cc1", "< 100 nM"),
    ("CCS(=O)(=O)c1ccc([C@H](CO)NC(=O)c2cnc3c(c2)CN(C[C@H]2CC[C@H](C(F)(F)F)OC2)[C@H]3C(C)C)cc1 (single isomer, unassigned)", "< 100 nM"),
]

Tell me the measured Ki of CCS(=O)(=O)c1ccc([C@H](CO)NC(=O)c2cnc3c(c2)CN(C[C@H]2CC[C@H](C(F)(F)F)CC2)C3C(F)(F)F)cc1 (stereo partly drawn) , please.
< 100 nM

Tell me the measured Ki of CCS(=O)(=O)c1ccc([C@@H](CO)NC(=O)c2cnc3c(c2)CN(C[C@H]2CC[C@H](C(F)(F)F)CC2)[C@H]3C(C)C)cc1 , please.
< 100 nM

Tell me the measured Ki of CC(C)[C@H]1c2ncc(C(=O)N[C@@H](CO)c3ccc(S(C)(=O)=O)cc3)cc2CN1C[C@H]1CC[C@@H](C(F)(F)F)CC1 , please.
< 100 nM

---

# target_or_test_system: recombinant RORγ Ligand Binding Domain (LBD) protein (Homo sapiens, UniProt P51449)
# Construct: 6×His; GST
# procedure_details: Radio-Ligand RORγ Binding Assay (Assay 1)
# condition_details: cell-free competition with 25-hydroxy[26,27-3H]-cholesterol; read-out: RORγ Binding Ki Range* (nM) (Assay 1)
# Ki annotations

Use the examples below as a reference point.
# compound, value_measured
records = [
    ("CCS(=O)(=O)c1ccc([C@H](CO)NC(=O)c2cnc3c(c2)CN(C[C@H]2CC[C@H](C(F)(F)F)CC2)[C@H]3C)cc1", "< 100 nM"),
    ("CC[C@H]1c2ncc(C(=O)N[C@@H](CO)c3ccc(S(=O)(=O)CC)cc3)cc2CN1C[C@H]1CC[C@H](C(F)(F)F)OC1 (single isomer, unassigned)", "< 100 nM"),
    ("CC[C@H]1c2ncc(C(=O)N[C@@H](CO)c3ccc(S(=O)(=O)CC)cc3)cc2CN1C[C@@H]1CC[C@@H](C(F)(F)F)OC1 (single isomer, unassigned)", "< 100 nM"),
    ("CCS(=O)(=O)c1ccc(C(C)(CO)NC(=O)c2cnc3c(c2)CN(C[C@H]2CC[C@H](C(F)(F)F)CC2)[C@H]3C(C)C)cc1 (some centres unmarked)", "< 100 nM"),
]

Tell me the measured Ki of CCS(=O)(=O)c1ccc([C@H](CO)NC(=O)c2cnc3c(c2)CN(C[C@H]2CC[C@H](C(F)(F)F)CC2)[C@@H]3Cc2ccccc2)cc1 , please.
100 to 1000 nM

Tell me the measured Ki of CCS(=O)(=O)c1ccc([C@H](CO)NC(=O)c2cnc3c(c2)CN(C[C@H]2CC[C@H](C(F)(F)F)CC2)[C@H]3C2CCOCC2)cc1 , please.
< 100 nM

---

# target_or_test_system: recombinant RORγ Ligand Binding Domain (LBD) protein (Homo sapiens)
# Construct: 6×His; GST
# procedure_details: Radio-Ligand RORγ Binding Assay (Assay 1)
# condition_details: cell-free competition with 25-hydroxy[26,27-3H]-cholesterol; read-out: RORγ Binding Ki Range* (nM) (Assay 1)
# Ki annotations

Use the examples below as a reference point.
# compound, target_or_test_system, value_measured
data = [
    ("CCS(=O)(=O)c1ccc([C@H](CO)NC(=O)c2cnc3c(c2)CN(C[C@@H]2CC[C@@H](C(F)(F)F)OC2)[C@H]3C(C)C)cc1 (single isomer, unassigned)", "recombinant RORγ Ligand Binding Domain (LBD) protein (Homo sapiens)", "< 100 nM"),
    ("CCS(=O)(=O)c1ccc(C(C)(CO)NC(=O)c2cnc3c(c2)CN(C[C@H]2CC[C@H](C(F)(F)F)CC2)[C@@H]3C(C)C)cc1 (stereo partly drawn)", "recombinant RORγ Ligand Binding Domain (LBD) protein (Homo sapiens)", "100 to 1000 nM"),
]

Pending compound:
Tell me the measured Ki of CCS(=O)(=O)c1ccc([C@H](CO)NC(=O)c2cnc3c(c2)CN(CC(F)(F)F)[C@@H]3Cc2ccccc2)cc1 , please.
< 100 nM

---

# IC50 annotations
# target_or_test_system: full-length RORγt in Jurkat cells (Homo sapiens)
# Sequence (P51449 1-497 isoform P51449-2): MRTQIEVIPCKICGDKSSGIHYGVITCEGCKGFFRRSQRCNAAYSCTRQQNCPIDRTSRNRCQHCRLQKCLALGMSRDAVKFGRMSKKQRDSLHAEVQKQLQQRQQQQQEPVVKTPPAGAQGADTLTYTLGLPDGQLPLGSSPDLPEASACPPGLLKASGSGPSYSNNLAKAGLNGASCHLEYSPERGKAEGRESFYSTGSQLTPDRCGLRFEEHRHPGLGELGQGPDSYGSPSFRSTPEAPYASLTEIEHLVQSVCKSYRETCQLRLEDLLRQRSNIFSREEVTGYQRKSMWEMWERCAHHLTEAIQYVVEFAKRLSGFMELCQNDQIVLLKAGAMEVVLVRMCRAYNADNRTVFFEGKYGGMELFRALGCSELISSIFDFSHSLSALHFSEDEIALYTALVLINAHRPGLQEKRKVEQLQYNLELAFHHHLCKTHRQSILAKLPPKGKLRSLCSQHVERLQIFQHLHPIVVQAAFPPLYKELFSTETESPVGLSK

Use the examples below as a reference point.
# compound, IC50
rows = [
    ("CCS(=O)(=O)c1ccc([C@H](CO)NC(=O)c2cnc3c(c2)CN(CC(F)(F)F)[C@@H]3Cc2ccccc2)cc1 [Compound 19]", "100 to 1000 nM"),
    ("CCS(=O)(=O)c1ccc([C@H](CO)NC(=O)c2cnc3c(c2)CN(C[C@H]2CC[C@H](C(F)(F)F)CC2)[C@H]3C2CCOCC2)cc1 [Compound 31]", "< 100 nM"),
    ("CCS(=O)(=O)c1ccc([C@H](CO)NC(=O)c2cnc3c(c2)CN(C[C@H]2CC[C@H](C(F)(F)F)CC2)[C@H]3Cc2ccccc2)cc1 [Compound 37]", "< 100 nM"),
    ("CC(C)[C@H]1c2ncc(C(=O)N[C@@H](CO)c3ccc(S(C)(=O)=O)cc3)cc2CN1C[C@H]1CC[C@@H](C(F)(F)F)CC1 [Compound 8]", "> 1000 nM"),
    ("CCS(=O)(=O)c1ccc([C@H](CO)NC(=O)c2cnc3c(c2)CN(CC(F)(F)F)[C@H]3Cc2ccccc2)cc1 [Compound 22]", "< 100 nM"),
    ("CCS(=O)(=O)c1ccc(C(C)(CO)NC(=O)c2cnc3c(c2)CN(C[C@H]2CC[C@H](C(F)(F)F)CC2)[C@H]3C(C)C)cc1 (some centres unmarked) [Compound 7]", "100 to 1000 nM"),
    ("CCS(=O)(=O)c1ccc([C@H](CO)NC(=O)c2cnc3c(c2)CN(C[C@H]2CC[C@H](C(F)(F)F)CC2)[C@H]3C)cc1 [Compound 26]", "100 to 1000 nM"),
    ("CCS(=O)(=O)c1ccc([C@H](CO)NC(=O)c2cnc3c(c2)CN(C[C@H]2CC[C@H](C(F)(F)F)OC2)[C@H]3C(C)C)cc1 (single isomer, unassigned) [Compound 5]", "< 100 nM"),
    ("CCS(=O)(=O)c1ccc([C@H](CO)NC(=O)c2cnc3c(c2)CN(C[C@H]2CC[C@H](C(F)(F)F)CC2)[C@H]3CC2CCOCC2)cc1 [Compound 27]", "< 100 nM"),
    ("CCS(=O)(=O)c1ccc([C@H](CO)NC(=O)c2cnc3c(c2)CN(C[C@H]2CC[C@H](C(F)(F)F)CC2)[C@H]3C(C)C)cc1 [Compound 46]", "< 100 nM"),
]

Pending compound:
Tell me the measured IC50 of CCO[C@H]1CC[C@H](CN2Cc3cc(C(=O)N[C@@H](CO)c4ccc(S(=O)(=O)CC)cc4)cnc3[C@@H]2C(C)C)CC1 [Compound 43] , please.
< 100 nM
